Item-by-item account of melting point

Worked cases, answers included:
[
  {
    "molecule": "CN1CCN(c2nc(NCc3ccco3)nc(Nc3ccc(O)cc3)n2)CC1",
    "quantity-kind": "melting point",
    "experimental-result": "116 to 118 °C"
  },
  {
    "molecule": "COc1cccc(-c2c(=O)[nH]c3cc(Cl)c(Cl)cc3[n+]2[O-])c1",
    "quantity-kind": "melting point",
    "experimental-result": "238 to 240 °C"
  },
  {
    "molecule": "CN(C)Cc1cccc(OCCCNc2nc(N=Cc3cccnc3)nn2C)c1",
    "quantity-kind": "melting point",
    "experimental-result": "92 to 93 °C"
  },
  {
    "molecule": "N#Cc1cc(NC(=O)c2ccn(-c3ccc(F)cc3)c2)ccc1N1CCC(N2CCOCC2)CC1",
    "quantity-kind": "melting point",
    "experimental-result": "182 to 183 °C"
  },
  {
    "molecule": "CCOc1ccc2[nH]c(=O)n(C3Cc4ccccc4C3)c2c1",
    "quantity-kind": "melting point",
    "experimental-result": "151 °C"
  }
]

Next molecule, melting point to be filled in.
Given COCCNc1cc(NCCOC)c([N+](=O)[O-])cc1Cl , state its recorded melting point.
106 °C

* * *

# key: entry, value: melting point

The following compounds have reported results that may help.
[
  {
    "compound": "Cc1ccc(-c2ccc(S(C)(=O)=O)cc2)n1-c1ccc(-c2ccoc2)c(Cl)c1",
    "melting point": "165 to 168 °C"
  },
  {
    "compound": "COc1cccc(NC(=O)c2ccccc2C(c2ccc(O)cc2)c2ccc(O)cc2)c1",
    "melting point": "106 to 107 °C"
  },
  {
    "compound": "CCCCc1oc2ccccc2c1C(=O)NCc1ccc2c(-c3ccc(C)cc3)c(O)ccc2c1",
    "melting point": "103 to 105 °C"
  },
  {
    "compound": "Nc1cc(-n2cc(C(=O)O)c(=O)c3cc(F)c(NCC(O)C(F)(F)F)c(Cl)c32)c(F)cc1F (stereo not given)",
    "melting point": "134 to 138 °C"
  },
  {
    "compound": "OCCOc1cc(O)ccc1-c1nc2cnccc2[nH]1",
    "melting point": "250 °C"
  },
  {
    "compound": "O=C1NC(=O)c2cc(NC3CCCCC3)c(NC3CCCCC3)cc21",
    "melting point": "170 to 175 °C"
  }
]

// below: melting point requested for another compound
Which melting point is reported for this compound? CC(=NNC(=O)c1ccccc1)c1sc(C)nc1C
138 °C

* * *

# melting point per record follows

Guide cases for melting point, answers given:
[
  {
    "compound": "O=C1CCC(CSc2ccccc2)C(=O)N1CN1CCCCC1 (stereo not given)",
    "melting point": "63 to 66 °C"
  },
  {
    "compound": "Cc1ccc(-c2nc(Cl)cc(N3CCN(C)CC3)n2)cc1",
    "melting point": "93 to 95 °C"
  }
]

Returns the measured melting point for the input compound. Input: CCCCc1ncc(/C=C(\Cc2cccs2)C(=O)O)n1Cc1ccccc1[N+](=O)[O-]
205 to 206 °C

Quick one: melting point for CC(Oc1ccnc2ccccc12)C(=O)Nc1ccc(Cl)cc1 (stereo not given) ?
170 to 172 °C

Find the recorded melting point belonging to CCC1=Nc2ccccc2CC(c2ccc(C)s2)N1C (stereo not given) and report it.
66 °C

Which melting point is reported for this compound? Cc1nc2ccccn2c(=O)c1CCN1CCC(c2coc3cc(F)ccc23)CC1
160 °C

Could you share which melting point value was measured for COC(=O)c1cc([N+](=O)[O-])ccc1-c1ccc([N+](=O)[O-])cc1C(=O)OC ?
176 to 177 °C

Give the measured melting point of CCCc1c(OCCCOc2cc(OCC(=O)OC)ccc2C(C)=O)ccc(C(C)=O)c1O .
103 to 106 °C

Entry NC(=O)C1(Nc2ccccc2)CCN(C2CCCc3ccccc32)CC1 (stereo not given) : reported melting point = ?
186 to 187 °C

Quick one: melting point of COc1cn(-c2ccc(-c3c(C)noc3C)cc2F)nc(-c2ccnn2-c2ccccc2)c1=O ?
200 to 202 °C

* * *

quantity-kind: melting point

[
  {
    "compound": "Cc1cc(C(=N)NO)ccc1-c1cccc(-c2nc3cc(C(=N)NO)ccc3[nH]2)c1",
    "melting point": "295 to 297 °C"
  },
  {
    "compound": "O=C(C1CC1)N1CCC2(CC1)Cc1ccccc1O2",
    "melting point": "111 to 113 °C"
  }
]

Any idea what melting point was measured for C=CC12COc3cc(Cl)ccc3C1=NN(C(=O)Nc1ccc(C(F)(F)F)cc1)C2 (configuration not stated) ?
157 to 161 °C

* * *

// reported melting point for each item listed

Reference set, count: 2
[
  {
    "molecule": "COc1ccc(C=Cn2ncc3ccccc3c2=O)cc1",
    "melting point": "267 to 269 °C"
  },
  {
    "molecule": "COC(=O)CCC(NC(=O)c1cn(C(c2ccccc2)(c2ccccc2)c2ccccc2)c(I)n1)C(=O)OC (stereo not given)",
    "melting point": "86 to 88 °C"
  }
]

melting point for c1ccc(C(OC2CCN(CCCNc3ccc4nncn4n3)CC2)c2ccccc2)cc1 ?
167 to 168 °C

Name the reported melting point value associated with the molecule C1=c2ccn3c2=C(CC1)c1nncn1-c1ccccc1-3
177 to 178 °C

Value lookup for melting point; key = O=C1c2ccccc2C(=O)N1CCCOc1ccc(O)cc1
135 to 137 °C

* * *

Listed here: items and their measured melting point.

Completed entries (count: 5):
[
  {
    "molecule": "CC(=O)Nc1c(C(=O)c2cccc(O)c2)[nH]c2cc(Cl)ccc12",
    "experimental-result": "130 to 145 °C"
  },
  {
    "molecule": "Cc1c(C(=O)O)ccc(Cl)c1Cl",
    "experimental-result": "174 to 175 °C"
  },
  {
    "molecule": "Cc1cn(-c2cc([N+](=O)[O-])cc(C(F)(F)F)c2)cn1",
    "experimental-result": "118 to 119 °C"
  },
  {
    "molecule": "O=C(O)c1nn(-c2ccccc2)c2c1C(N1CCOCC1)c1ccccc1-2 (stereo unspecified)",
    "experimental-result": "244 to 245 °C"
  },
  {
    "molecule": "CCCc1cc2c(cc1C=Cc1ccc(C(=O)OC)cc1)C(C)(C)CCC2(C)C",
    "experimental-result": "120 to 121 °C"
  }
]

Please report the recorded melting point for Cc1nc2n(c(=O)c1CCO)CCS2 .
149 °C

Given the entry Cc1ccc2c(c1)-c1nn(-c3ccc(Cl)cc3)c(=O)cc1CS2 , report its measured melting point.
200 to 206 °C

Report melting point for COC(=O)CS(=O)(=O)N1CC=C(c2ccc(-c3ccccc3)c(OC)c2)CC1 please.
92 to 95 °C

I have this molecule here, COc1cc2c(cc1OCc1ccccc1)C1Cc3c(Cl)cc(OC)c(OCCO)c3CN1CC2 (stereo unspecified) , and I need its recorded melting point.
154 °C

Can you look up the measured melting point of CCCCCCCCCCCCCCCCCCCCSCCCO for me?
58 to 60 °C

Entry CCCCCCCCCCCCCCCC(=O)OCC(COC(=O)CCCCCCCCCCCCCCC)OC(=O)C1C=CC=CC1(O)C(C)=O (stereo unspecified) : reported melting point = ?
43 to 44 °C

Which melting point reading was recorded for the molecule Cn1nnc(-c2ccc3c(c2)c(C2=CCN(CCN4CCNC4=O)CC2)cn3-c2ccncc2)n1 ?
177 to 178 °C

Look up melting point: O=C(Cl)c1sc2ccc(OCc3ccccc3)cc2c1Cl
139 to 142 °C

* * *

quantity-kind: melting point

The cases that follow already have their melting point on record.
[
  {
    "molecule": "ClCCOc1c2ccccc2c(OCCCl)c2ccccc12",
    "experimental-result": "143 to 145 °C"
  },
  {
    "molecule": "O=C(O)Cc1ccc2ncsc2c1",
    "experimental-result": "147 to 149 °C"
  },
  {
    "molecule": "CN(CCOc1ccc(C(N)=O)cc1)CCc1ccc([N+](=O)[O-])cc1",
    "experimental-result": "116 to 118 °C"
  }
]

Given the molecule CN1CCC(Sc2ccc3[nH]c(=O)[nH]c3c2)CC1 , what is its reported melting point?
214 to 215 °C

Reported melting point for O=C(NCCCn1cnc2cnc3ccccc3c21)c1ccccc1 : what is it?
188 to 190 °C

# input molecule: CCSc1cnc(Oc2ccc(Cl)c(Cl)c2)c(C#N)c1 ; wanted: its melting point
114 to 115 °C

Suppose we examine the molecule c1cc2[nH]ncc2cc1NC1CC2CCC(C1)N2 (stereo unspecified) ; what melting point value has been reported?
236 to 238 °C

Value lookup for melting point; key = CCCCCCC1CCC(C(=O)Nc2c(C(C)C)cccc2C(C)C)C(=O)O1 (stereo unspecified)
113 to 115 °C

Sample O=[N+]([O-])c1ccc2c(c1)C1OC1CCO2 (stereo unspecified) — what was its melting point?
121 to 123 °C

Tell me the measured melting point of Nc1cccc(-c2ccc(CCNCCCCCc3ccccc3)cc2)n1 , please.
60 to 70 °C

Which measured melting point value corresponds to CCOC(=O)c1ccc(NCCCc2c(N(C(C)=O)C(C)=O)nc(NC(C)=O)[nH]c2=O)cc1 ?
197 to 198 °C

Which measured melting point value corresponds to O=COCc1cc2c3ccccc3[nH]c(=O)n2n1 ?
190 to 192 °C

If you can, please state the reported melting point value of O=C(C=Cc1ccc(OC(F)(F)F)cc1)C=Cc1ccc(OC(F)(F)F)cc1 .
112 to 115 °C

What measured melting point goes with O=[N+]([O-])C[C@@H](O)[C@H](O)[C@@H](O)[C@@H](O)CO ?
89 to 91 °C

Which melting point reading was recorded for the molecule COc1cc2c(Nc3ccc(Cl)cc3F)ncnc2cc1OCCNC1CCCC1 ?
171 to 173 °C

Given Cc1csc2nc3ccc(C(F)(F)F)cc3n12 , state its recorded melting point.
127 °C

Which value of melting point has been reported for Cc1cc(C)c(NS(=O)(=O)c2cc(S(=O)(=O)Nc3c(C)cc(C)cc3C)c3cc(O)ccc3c2)c(C)c1 in the records?
148 to 150 °C

Tell me the measured melting point of COC(=O)c1ccc(CCc2cnc3nc(N)nc(O)c3c2)cc1 , please.
> 300 °C

Look up melting point: COc1ccc(-c2[nH]c(-c3ccc([N+](=O)[O-])c(C)c3)nc2C(=O)O)cc1
229 to 230 °C

Values from a melting point compilation (Tetko et al.; mined from patent text by program, amines drawn as free bases though some values may be those of a salt)
